- ASSAY_NAME: Temperature-programmed turbidimetry (transition temperature Tt)
- Format: physicochemical
- CONDITION_CONTEXT: ATBP or ATBP-SMM conjugate in PBS, ATBP concentration 50 μM
Where a name gives a salt, the structure may show the parent alone.
Below, each of the compounds is paired with its reported Tt, Concentration 50 μM value.
ENDPOINT_LABEL: Tt, Concentration 50 μM (C)

                                   compound           endpoint_label  measured_value
0  O=C1C=CC(=O)N1O [SMM 1, N-hydroxymaleimide]  Tt, Concentration 50 μM              46
1  O=C1C=CC(=O)N1c1ccccc1 [SMM 7, N-Phenyl maleimide]  Tt, Concentration 50 μM              44
2  CN1C(=O)C=CC1=O [SMM 5, N-methyl maleimide]  Tt, Concentration 50 μM              44
3              Cl.NCCN1C(=O)C=CC1=O [SMM 2]  Tt, Concentration 50 μM              46
4  CC(C)(C)N1C(=O)C=CC1=O [SMM 8, N-^tbutyl maleimide]  Tt, Concentration 50 μM              47
5  CCN1C(=O)C=CC1=O [SMM 6, N-ethyl maleimide]  Tt, Concentration 50 μM              46
6  CS(=O)(=O)OCCN1C(=O)C=CC1=O [SMM 3, N-2-Maleimidoethyl mesylate]  Tt, Concentration 50 μM              42
